PROTOCOL_SUMMARY: HepG2 cells viability qHTS for Zika virus inhibitors (AID 1347168)
EXPERIMENTAL_CONDITIONS: Zika counter-screen; series mostly up to 45.9 µM
Records with an inconclusive call do not appear. Active and inactive are the calls of the source. Calls follow the shape of the dose curve; as a rule, active = well fitted cell-killing curve with a large enough effect; inconclusive = small, poorly fitted or top-dose-only effect; inactive = flat fitted curve, though single readings scatter.
PARAMETER: outcome

[
  {
    "MOLECULE": "CC/C=C/C=C/C1(C)OC(OC)=C(C(=O)C2C(C)C(=O)c3cc(OC)c(O)c(O)c3C2(C)O)C1=O (stereo not drawn)",
    "RESULT": "inactive"
  },
  {
    "MOLECULE": "C=CCN1CCC2(C)c3cc(O)ccc3C[C@H]1[C@H]2C",
    "RESULT": "inactive"
  },
  {
    "MOLECULE": "C=CCN1CCC2(C)c3cc(O)ccc3CC1C2C (stereo not drawn)",
    "RESULT": "inactive"
  }
]

Attribution: PubChem BioAssay (NCATS)
